Test system: RAW-Dual
Test: NF-kB SEAP reporter activity, fold change vs agonist alone; cytotoxicity flag (confluency mask): cytotoxic (confluency <70% of control); library stock concentration (final ~1000-fold dilution): 10 mM; higher = enhanced NF-kB activity
Conditions: agonist: Pam2CSK4 (TLR2/6) 0.1 ug/mL
Over roughly 2,900 compounds, “NF-kB SEAP reporter activity, fold change vs agonist alone” has its median near 0.99; the highest 2% begin near 2.6. The full list was thinned out, with the highest values kept by preference.
NF-kB SEAP reporter activity below 0.6 gives No; NF-kB SEAP reporter activity at or above it gives Yes.

Example cases with answers are listed next.
Molecule | Label
CN1C(=O)C23CC4(C56CC78SSC(CO)(C(=O)N7C5Nc5ccccc56)N(C)C8=O)c5ccccc5NC4N2C(=O)C1(CO)SS3 (centres undefined) | No
CN1Cc2c(ccc3c2OCO3)C2C(O)Cc3cc4c(cc3C21)OCO4 (centres undefined) | Yes
Nc1ncnc2c1ccn2C1OC(CO)C(O)C1O (centres undefined) | No
COc1cc(C2c3cc4c(cc3C(O)C3COC(=O)C23)OCO4)cc(OC)c1OC (centres undefined) | Yes
O=C(CBr)N1CC([N+](=O)[O-])([N+](=O)[O-])C1 | No
CCc1c2c(nc3ccccc13)-c1cc3c(c(=O)n1C2)COC(=O)C3(O)CC (centres undefined) | Yes

NF-kB SEAP reporter activity >= 0.6 for Cc1sc2c(c1C)C(c1ccc(Cl)cc1)=NC(CC(=O)OC(C)(C)C)c1nnc(C)n1-2 (centres undefined) ? Yes

Please do the same for CC(C)(C)c1cc(C=C(C#N)C#N)cc(Br)c1O as well. No

Moving on to the next molecule: COc1ccc(CC2NCC(O)C2OC(C)=O)cc1 (centres undefined) No

* * *

NF-kB SEAP reporter activity listing for selected compounds.
Tested on: RAW-Dual
Assay: NF-kB SEAP reporter activity, fold change vs agonist alone; cytotoxicity flag (confluency mask): not cytotoxic; library stock concentration (final ~1000-fold dilution): 10 mM; higher = enhanced NF-kB activity
Conditions: agonist: Pam3CSK4 (TLR2/1) 0.1 ug/mL
Over roughly 2,900 compounds, “NF-kB SEAP reporter activity, fold change vs agonist alone” has its median near 0.99; the highest 2% begin near 2.6. What follows is part of a selection rich in the highest values, with near analogues and random picks from the rest.

Compound | System | Reported
COc1cc(-n2c(S)nc3ccccc3c2=O)c(Cl)cc1Cl | RAW-Dual | 0.826

GET /values?readout=NF-kB SEAP reporter activity&item= CN1C2CCC1CC(OC(=O)C(CO)c1ccccc1)C2.CN1C2CCC1CC(OC(=O)C(CO)c1ccccc1)C2.O.O=S(=O)(O)O (configuration not stated) 1.05

Please answer likewise for Cc1sc2c(c1C)C(c1ccc(Cl)cc1)=NC(CC(N)=O)c1nnc(C)n1-2 (configuration not stated) 1.69

* * *

Catalogue of NF-kB SEAP reporter activity readings, one per entry.
Test system: RAW-Dual
Test: NF-kB SEAP reporter activity, fold change vs agonist alone; higher = enhanced NF-kB activity
Conditions: library stock concentration (final ~1000-fold dilution): 10 mM; cytotoxicity flag (confluency mask): not cytotoxic; agonist: MPLA (TLR4) […]
Over roughly 2,900 compounds, “NF-kB SEAP reporter activity, fold change vs agonist alone” has its median near 0.99; the highest 2% begin near 2.6. For the sample, the highest values were picked, then their nearest neighbours and some compounds at random.
Give only the figure.

Example compounds with recorded NF-kB SEAP reporter activity:
Compound | NF-kB SEAP reporter activity
CC1=CC2Cc3[nH]c(=O)ccc3C3(C1)NCCCC23 (stereo unspecified) | 1.03
Cl[Te]1(Cl)(Cl)OCCO1.N | 0.899
C=CC1CN2CCC3(C(=O)Nc4ccccc43)C2CC1/C(=C\OC)C(=O)OC (stereo unspecified) | 1.1

Give the reported NF-kB SEAP reporter activity for Cl.O=C(O)Cc1c[nH]cn1 (system: RAW-Dual). 1.05

Another compound to check: COC1=CC2C3Cc4ccc(OC)c(O)c4C2(CCN3C)CC1=O.Cl (stereo unspecified) 0.999

What do you have for COc1cc(-n2c(S)nc3ccccc3c2=O)c(Cl)cc1Cl ? 0.953

How about this compound: CN1C2CC(OC(=O)C(CO)c3ccccc3)CC1C1OC12 (stereo unspecified) 1.04

* * *

Tested on: RAW-Dual
Test: NF-kB SEAP reporter activity, fold change vs agonist alone; cytotoxicity flag (confluency mask): cytotoxic (confluency <70% of control); library stock concentration (final ~1000-fold dilution): 10 mM; higher = enhanced NF-kB activity
Conditions: agonist: LPS (TLR4) 0.1 ug/mL
In all, about 2,900 compounds were measured (“NF-kB SEAP reporter activity, fold change vs agonist alone”: median about 0.99, highest 2% from about 2.6 on). Only a selection was taken, and the highest values are over-represented in it overall.
Label t when NF-kB SEAP reporter activity >= 3; otherwise f.

Reported NF-kB SEAP reporter activity at or above 3? CCc1c2c(nc3ccccc13)-c1cc3c(c(=O)n1C2)COC(=O)C3(O)CC (stereo unspecified) f

Param item: COc1cc(C2c3cc4c(cc3C(O)C3COC(=O)C23)OCO4)cc(OC)c1OC (stereo unspecified) t

Next up: CN1Cc2c(ccc3c2OCO3)C2C(O)Cc3cc4c(cc3C21)OCO4 (stereo unspecified) f

Please answer likewise for Cn1c(CCCCCCC(=O)NO)nc2cc(N(CCCl)CCCl)ccc21 t

Ok, now CC(C)(C)c1cc(C=C(C#N)C#N)cc(C(C)(C)C)c1O t

Next up: Cc1sc2c(c1C)C(c1ccc(Cl)cc1)=NC(CC(=O)OC(C)(C)C)c1nnc(C)n1-2 (stereo unspecified) f

* * *

System: RAW-Dual
Experiment: NF-kB SEAP reporter activity, fold change vs agonist alone; cytotoxicity flag (confluency mask): not cytotoxic; library stock concentration (final ~1000-fold dilution): 10 mM; higher = enhanced NF-kB activity
Conditions: agonist: ODN 1826 (TLR9) 0.5 ug/mL
Over roughly 2,900 compounds, “NF-kB SEAP reporter activity, fold change vs agonist alone” has its median near 0.99; the highest 2% begin near 2.6. What follows is part of a selection rich in the highest values, with near analogues and random picks from the rest.
Reported metric: NF-kB SEAP reporter activity
Response field accepts a number only; no unit should be typed.

Recorded results for 6 compounds are shown here.
Compound | NF-kB SEAP reporter activity
COc1cc2c(c(OC)c1OC)-c1ccc(OC)c(=O)cc1C(NC(C)=O)CC2 (stereo not drawn) | 3.47
CC1=CC2Cc3[nH]c(=O)ccc3C3(C1)NCCCC23 (stereo not drawn) | 0.952
Br.COc1ccc2c(c1)C13CCCCC1C(C2)N(C)CC3.O (stereo not drawn) | 0.615
Cl.NCCc1ccc(S(=O)(=O)F)cc1 | 1.01
CC[C@H]1CN2CC[C@]3(C(=O)Nc4ccccc43)[C@@H]2C[C@@H]1/C(=C\OC)C(=O)OC | 1.05
CC1CCC/C=C/C2CC(O)CC2C(O)/C=C/C(=O)O1 (stereo not drawn) | 0.297

Requested read-out: NF-kB SEAP reporter activity. Entry: COC1=CC2C3Cc4ccc(OC)c(O)c4C2(CCN3C)CC1=O.Cl (stereo not drawn) 0.884

Same again, this time with COc1cc(C)[nH]c(=O)c1CNC(=O)c1c(C)n(C(C)C2CCOCC2)c2ccccc12 (stereo not drawn) 1.05

* * *

Tested on: RAW-Dual
Experiment: NF-kB SEAP reporter activity, fold change vs agonist alone; higher = enhanced NF-kB activity
Details: library stock concentration (final ~1000-fold dilution): 10 mM; cytotoxicity flag (confluency mask): cytotoxic (confluency <70% of control); agonist: Imiquimod (TLR7) […]
The full ranking holds about 2,900 compounds; the median of “NF-kB SEAP reporter activity, fold change vs agonist alone” is about 0.99, and the highest 2% start at about 2.6. For the sample, the highest values were picked, then their nearest neighbours and some compounds at random.
Here, each record is paired with measured NF-kB SEAP reporter activity data.
Lab note: record just the number, no unit beside it.

Molecule | System | NF-kB SEAP reporter activity
CC(C)(C)c1cc(C=C(C#N)C#N)cc(Br)c1O | RAW-Dual | 2.04
Cn1c(CCCCCCC(=O)NO)nc2cc(N(CCCl)CCCl)ccc21 | RAW-Dual | 1.62
CN1Cc2c(ccc3c2OCO3)C2C(O)Cc3cc4c(cc3C21)OCO4 (stereo unspecified) | RAW-Dual | 1.6
COc1ccc(CC2NCC(O)C2OC(C)=O)cc1 (stereo unspecified) | RAW-Dual | 0.133
O=C(CBr)N1CC([N+](=O)[O-])([N+](=O)[O-])C1 | RAW-Dual | 0.542

Please find the next molecule below.
Report NF-kB SEAP reporter activity for CN1C(=O)C23CC4(C56CC78SSC(CO)(C(=O)N7C5Nc5ccccc56)N(C)C8=O)c5ccccc5NC4N2C(=O)C1(CO)SS3 (stereo unspecified) please. 0.117

Origin of the recorded values: the supplement of paper PMC10037445
